Source listed as patent US11001569B2.

Test system: JJN-3 (NIK translocated) multiple myeloma cells
Experiment: Antiproliferative activity on JJN-3 multiple myeloma cells (CellTiter-Glo)
Type: cell-based, human
Conditions: Homo sapiens, JJN-3, 96 h, JJN-3 (NIK translocated) cells, 96 hr treatment, averaged values, read-out: JJN-3 Proliferation inhibition (IC50 (nM))
Procedure: Determination of Antiproliferative Activity on JJN-3 (NIK Translocated) and KMS12-BM (NIK WT) Multiple Myeloma Cells All compounds tested were dissolved in DMSO and further dilutions were made in culture medium. […] Viability was assessed using CellTiter-Glo cell viability assay kit (Promega). […] Luminescence was measured on a HTS Topcount (Perkin Elmer). […] For each experiment, controls (containing no drug) and a blank incubation (containing cells read at the time of compound addition) were run in parallel. […]
Property Measured: IC50
Please don't drop the unit; write it after the number.

// known answers, use as guide
{"columns": ["Compound", "IC50"],
 "data": [
  ["COC[C@@]1(C)CNc2c(C#N)cc(-c3ccnc(Nc4cc(Cl)cnc4C)n3)cc21", "478 nM"],
  ["COc1ncccc1Nc1nccc(-c2cc(C#N)c3c(c2)C(C)(CN2CCOCC2)CN3)n1 (stereo not shown)", "5750 nM"]
]}

Prompt: Lookup: IC50 / JJN-3 (NIK translocated) multiple myeloma cells / COc1nc(C)c(Nc2nccc(-c3cc(C#N)c4c(c3)[C@@](C)(CO)CN4)n2)cc1C
Completion: 39 nM

Prompt: Lookup: IC50 / JJN-3 (NIK translocated) multiple myeloma cells / CNC(=O)c1cnc(C)c(Nc2nccc(-c3cc(C#N)c4c(c3)[C@@](C)(CO)CN4)n2)c1
Completion: 1440 nM

* * *

Consider the following compounds and their measured melting point readings.
Lab book: enter the figure in °C, no units written.

{"columns": ["Compound", "melting point (°C)"],
 "data": [
  ["Cc1cnc(CCNC2CC2)c(Nc2nccc(-c3cc(C#N)c4c(c3)[C@@](C)(CO)CN4)n2)c1", 156],
  ["COc1ncccc1Nc1nccc(-c2cc(C#N)c3c(c2)[C@@](C)(CO)CN3)n1", 241],
  ["COCCN(C)c1nc(OC)c(Nc2nccc(-c3cc(C#N)c4c(c3)[C@@](C)(CO)CN4)n2)cc1Cl", 215]
]}

Prompt: Fill in: melting point of Cc1cc(Nc2nccc(-c3cc(C#N)c4c(c3)[C@@](C)(CO)CN4)n2)c(=O)n(Cc2nccn2C2CC2)c1 is ___
Completion: 194

Prompt: Fill in: melting point of COCCNc1nc(OC)c(Nc2nccc(-c3cc(C#N)c4c(c3)[C@@](C)(CO)CN4)n2)cc1Cl is ___
Completion: 231

Prompt: Fill in: melting point of CCCCOc1ncccc1Nc1nccc(-c2cc(C#N)c3c(c2)[C@@](C)(CO)CN3)n1 is ___
Completion: 143

Prompt: Fill in: melting point of CC1(CO)CNc2c(C#N)cc(-c3ccnc(Nc4cncnc4)n3)cc21 (centres unmarked) is ___
Completion: 307

Prompt: Fill in: melting point of Cc1cc(Nc2nccc(-c3cc(C#N)c4c(c3)[C@@](C)(CO)CN4)n2)c(=O)n(CCN2CCCOCC2)c1 [Compound 20i] is ___
Completion: 287

* * *

Consider the following compounds and their measured IC50 readings.
system: KMS12-BM (NIK WT) multiple myeloma cells; assay: Antiproliferative activity on KMS12-BM multiple myeloma cells (CellTiter-Glo); format: cell-based, human; settings: 96 hr treatment, averaged values, read-out: KMS-12 Proliferation inhibition (IC50 (nM))

// known answers, use as guide
{"columns": ["Compound", "IC50"],
 "data": [
  ["CN1CCCC(COc2ncc(Cl)cc2Nc2nccc(-c3cc(C#N)c4c(c3)[C@@](C)(CO)CN4)n2)C1 (single isomer, unassigned) [Compound 55]", "1350 nM"],
  ["CN1CCCC(COc2ncc(Cl)cc2Nc2nccc(-c3cc(C#N)c4c(c3)[C@@](C)(CO)CN4)n2)C1 (single isomer, unassigned) [Compound 56]", "~148 nM"],
  ["Cc1cnc(OC2CCN(C)CC2F)c(Nc2nccc(-c3cc(C#N)c4c(c3)[C@@](C)(CO)CN4)n2)c1 (stereo partly drawn) [Compound 155]", "~2880 nM"],
  ["Cc1cnc(OC2CCN(C)CC2F)c(Nc2nccc(-c3cc(C#N)c4c(c3)[C@@](C)(CO)CN4)n2)c1 (mixture of isomers) [Compound 171]", "> 10000 nM"],
  ["Cc1cnc(OCC2COCCN2C)c(Nc2nccc(-c3cc(C#N)c4c(c3)[C@@](C)(CO)CN4)n2)c1 (single isomer, unassigned)", "> 10000 nM"]
]}

Prompt: Fill in: IC50 of Cc1ncc(Nc2nccc(-c3cc(C#N)c4c(c3)[C@@](C)(CO)CN4)n2)c(OCC2CCCO2)n1 (single isomer, unassigned) is ___
Completion: > 10000 nM

Prompt: Fill in: IC50 of COC[C@@]1(C)CNc2c(C#N)cc(-c3ccnc(Nc4cc(Cl)cnc4C)n3)cc21 is ___
Completion: 4790 nM

Prompt: Fill in: IC50 of Cc1cnc(OC2CN(C)CC2F)c(Nc2nccc(-c3cc(C#N)c4c(c3)[C@@](C)(CO)CN4)n2)c1 (stereo partly drawn) is ___
Completion: ~7940 nM

Prompt: Fill in: IC50 of Cc1cc(Nc2nccc(-c3cc(C#N)c4c(c3)[C@@](C)(CO)CN4)n2)c(=O)n(CC(C)N2CCOCC2)c1 (single isomer, unassigned) [Compound 23i] is ___
Completion: > 10000 nM

* * *

Consider the following molecules and their measured IC50 readings.
Molecular target: recombinant human NF-kappaB-inducing Kinase (NIK/MAP3K14) (Homo sapiens)
Sequence (Q99558 whole entry): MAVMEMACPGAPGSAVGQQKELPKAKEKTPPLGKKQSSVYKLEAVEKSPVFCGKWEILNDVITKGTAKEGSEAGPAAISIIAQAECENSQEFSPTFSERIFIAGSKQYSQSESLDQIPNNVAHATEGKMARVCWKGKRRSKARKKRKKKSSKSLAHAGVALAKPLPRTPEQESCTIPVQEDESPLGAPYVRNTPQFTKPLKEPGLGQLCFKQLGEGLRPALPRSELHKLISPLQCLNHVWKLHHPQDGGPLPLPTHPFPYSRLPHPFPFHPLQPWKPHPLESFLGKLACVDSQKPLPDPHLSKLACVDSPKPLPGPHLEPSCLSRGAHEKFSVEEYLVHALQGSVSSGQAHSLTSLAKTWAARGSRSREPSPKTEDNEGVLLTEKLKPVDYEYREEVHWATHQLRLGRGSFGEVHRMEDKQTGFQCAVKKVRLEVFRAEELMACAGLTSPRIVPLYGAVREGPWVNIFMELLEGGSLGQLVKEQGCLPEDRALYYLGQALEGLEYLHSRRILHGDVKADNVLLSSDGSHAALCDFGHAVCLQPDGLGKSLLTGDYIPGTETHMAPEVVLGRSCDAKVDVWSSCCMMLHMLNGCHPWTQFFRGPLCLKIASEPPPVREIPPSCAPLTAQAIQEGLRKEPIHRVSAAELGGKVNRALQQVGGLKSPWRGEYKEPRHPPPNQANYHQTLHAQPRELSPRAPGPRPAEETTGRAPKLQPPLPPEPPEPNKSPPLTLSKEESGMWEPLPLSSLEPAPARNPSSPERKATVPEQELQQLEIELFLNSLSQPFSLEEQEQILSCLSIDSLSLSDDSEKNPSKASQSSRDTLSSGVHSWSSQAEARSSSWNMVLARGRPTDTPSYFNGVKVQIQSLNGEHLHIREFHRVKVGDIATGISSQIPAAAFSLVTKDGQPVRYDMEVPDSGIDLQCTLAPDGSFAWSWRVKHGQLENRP
Assay: Inhibition of auto-phosphorylation of recombinant human NIK/MAP3K14 activity (AlphaScreen)
Assay type: biochemical
Details: 25 microM ATP, averaged over all measurements on all batches
Method: Pharmacological Part Biological assay A Inhibition of auto-phosphorylation of recombinant human NF-kappaB-inducing Kinase (NIK/MAP3K14) Activity (AlphaScreen®) NIK/MAP3K14 auto-phosphorylation activity was measured using the AlphaScreen® (αscreen) format (Perkin Elmer). […] Protein A Acceptor and Glutathione-Donor beads were added before reading using an EnVision® Multilabel Plate Reader (Perkin Elmer). […]
Lab book: enter the figure in nM, no units written.

{"columns": ["Molecule", "Obs Value"],
 "data": [
  ["Cc1cc(Nc2nccc(-c3cc(C#N)c4c(c3)[C@@](C)(CO)CN4)n2)c(=O)n(CCN2CCOCC2)c1", 1.2]
]}

Prompt: Fill in: IC50 of COc1ncccc1Nc1nccc(-c2cc(C#N)c3c(c2)C(C)(CNCCS(C)(=O)=O)CN3)n1 (stereo not shown) is ___
Completion: 22.9

Prompt: Fill in: IC50 of COc1ncccc1Nc1nccc(-c2cc(C#N)c3c(c2)C(C)(CN2CCNCC2)CN3)n1 (stereo not shown) is ___
Completion: 14.8

Prompt: Fill in: IC50 of CCCCOc1ncccc1Nc1nccc(-c2cc(C#N)c3c(c2)[C@@](C)(CO)CN3)n1 is ___
Completion: 16.6

* * *

Consider the following compounds and their measured IC50 readings.
molecular target: recombinant human NF-kappaB-inducing Kinase (NIK/MAP3K14) (Homo sapiens); experiment: Inhibition of auto-phosphorylation of recombinant human NIK/MAP3K14 activity (AlphaScreen); type: biochemical; settings: 25 microM ATP, averaged over all measurements on all batches
Lab book: enter the figure in nM, no units written.

{"columns": ["Compound", "Unit Tag", "Obs Value"],
 "data": [
  ["COCCN(C)c1nc(C)c(Nc2nccc(-c3cc(C#N)c4c(c3)[C@@](C)(CO)CN4)n2)cc1Cl", "nM", 3]
]}

As a next step, examine the compound that follows.
Prompt: Fill in: IC50 of CC(C)Oc1ncc(Cl)cc1Nc1nccc(-c2cc(C#N)c3c(c2)[C@@](C)(CO)CN3)n1 is ___
Completion: 51.3

* * *

Consider the following compounds and their measured log10 of IC50 readings.
system: JJN-3 (NIK translocated) multiple myeloma cells; assay: Antiproliferative activity on JJN-3 multiple myeloma cells (CellTiter-Glo); format: cell-based, human; conditions: Homo sapiens, JJN-3, 96 h, JJN-3 (NIK translocated) cells, 96 hr treatment, averaged values, read-out: JJN-3 Proliferation inhibition (IC50 (nM))
Units before log transform: nM; reported quantity: IC50; transform: log10.

// known answers, use as guide
{"columns": ["Compound", "log10 of IC50"],
 "data": [
  ["COc1cnc(C)cc1Nc1nccc(-c2cc(C#N)c3c(c2)[C@@](C)(CO)CN3)n1", 1.78],
  ["COc1ncccc1Nc1nccc(-c2cc(C#N)c3c(c2)C(C)(CO)CN3)n1 (stereo not drawn)", 1.90],
  ["Cc1cc(Nc2nccc(-c3cc(C#N)c4c(c3)[C@@](C)(CO)CN4)n2)c(C)nc1OCC1COC1", 2.06],
  ["COc1ncc(Cl)cc1Nc1nccc(-c2cc(C#N)c3c(c2)[C@@](C)(CO)CN3)n1", 2.57]
]}

Prompt: Lookup: log10 of IC50 / JJN-3 (NIK translocated) multiple myeloma cells / CN1CCC(Oc2ncc(Cl)cc2Nc2nccc(-c3cc(C#N)c4c(c3)C(C)(CO)CN4)n2)CC1 (stereo not drawn)
Completion: 1.38

Prompt: Lookup: log10 of IC50 / JJN-3 (NIK translocated) multiple myeloma cells / Cc1nc(C)c(Cl)c(Nc2nccc(-c3cc(C#N)c4c(c3)[C@@](C)(CO)CN4)n2)n1
Completion: 3.52

Prompt: Lookup: log10 of IC50 / JJN-3 (NIK translocated) multiple myeloma cells / COCCNc1ccc(Nc2nccc(-c3cc(C#N)c4c(c3)C(C)(CO)CN4)n2)c(OC)n1 (stereo not drawn)
Completion: 2.77

Prompt: Lookup: log10 of IC50 / JJN-3 (NIK translocated) multiple myeloma cells / CCCc1ncc(C#N)cc1Nc1nccc(-c2cc(C#N)c3c(c2)[C@@](C)(CO)CN3)n1
Completion: 1.99

Prompt: Lookup: log10 of IC50 / JJN-3 (NIK translocated) multiple myeloma cells / COc1ncc(C)cc1Nc1nccc(-c2cc(C#N)c3c(c2)[C@@](C)(CO)CN3)n1
Completion: 1.20
